assayed-target: G1/S-specific cyclin-E1 (Homo sapiens, UniProt P24864)
Sequence (P24864 whole entry): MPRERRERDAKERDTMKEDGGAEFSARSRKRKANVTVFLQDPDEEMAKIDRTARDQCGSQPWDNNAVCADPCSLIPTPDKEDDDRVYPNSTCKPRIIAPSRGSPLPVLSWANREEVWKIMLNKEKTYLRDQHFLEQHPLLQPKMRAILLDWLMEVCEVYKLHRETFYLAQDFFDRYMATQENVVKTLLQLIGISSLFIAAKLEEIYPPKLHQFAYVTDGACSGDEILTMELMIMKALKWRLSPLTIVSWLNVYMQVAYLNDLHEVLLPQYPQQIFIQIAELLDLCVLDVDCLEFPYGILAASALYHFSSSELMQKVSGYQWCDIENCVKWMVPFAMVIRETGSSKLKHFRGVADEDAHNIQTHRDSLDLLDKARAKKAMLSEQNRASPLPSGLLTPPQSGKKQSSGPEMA
measure: pIC50
Just the number, please; pIC50 means minus log10 of the concentration in mol/L.

# assay system G1/S-specific cyclin-E1 (Homo sapiens, UniProt P24864): give pIC50 of Cc1ncc(-c2ccnc(Nc3ccc(S(C)(=O)=O)cc3)n2)n1C(C)C [AZD-5438]
8.22

---

experimental-details: Lipophilicity, log D at pH 7.4
cond: buffer
Form field: logD (one value per entry).
Please respond with just the number, no unit label.

Worked examples follow.
- smi: "Cc1ncc(-c2ccnc(Nc3ccc(S(=O)(=O)CCCN(C)C)cc3)n2)n1C(C)C"
  logD: 1.3
- smi: "CN(C)CCCNS(=O)(=O)c1ccc(Nc2nccc(-c3cnc4cccnn34)n2)cc1"
  logD: 1.4
- smi: "CN(C)CCNS(=O)(=O)c1ccc(Nc2nccc(-c3cnc4ccccn34)n2)cc1"
  logD: 2.7
- smi: "NS(=O)(=O)c1ccc(Nc2nccc(-c3cnc4ccccn34)n2)cc1"
  logD: 2.7

# ---- query compound ----
Tell us which logD value is on record for "Cc1ncc(-c2ccnc(Nc3ccc(S(C)(=O)=O)cc3)n2)n1C(C)C"
2.4
